experiment: DNDI: Solubility in phosphate buffered saline at pH7.4 measured by optical density (turbidimetry) at room temperature (OD-RT); type: physicochemical; conditions: pH 7.4
Parameter: log10 of solubility kinetic (log10 of the value in µM)

INSERT INTO measurements (compound, measured_value) VALUES
  ('CCCCCC(C)NCc1coc(-c2ccc(OC(C)C)cc2)n1 (configuration not stated)', 1.10),
  ('CCCCCC(C)NCc1coc(-c2cccc(OCC)c2)n1 (configuration not stated)', 0.80),
  ('COc1ccccc1Oc1ncccc1/C(=N\O)NC1CCCCC1', 1.40),
  ('O/N=C(\NC1CCCCC1)c1ccccc1Oc1ccccc1', 2.00),
  ('CCOc1ccc(-c2nc(CNC3C[C@@H]4C[C@H]([C@H]3C)C4(C)C)co2)cc1 (some centres not stated)', 0.80),
  ('CCCCCC(C)NCc1coc(-c2ccc(Cl)cc2)n1 (configuration not stated)', 0.80),
  ('COc1cccc(/C(=N/O)NC2CCCCC2)c1', 2.00),
  ('COc1cc(C)ccc1Oc1ncccc1/C(=N/O)NC1CCCCC1', 1.40),
  ('CCCCCC(C)NCc1coc(-c2ccc(CCCC)cc2)n1 (configuration not stated)', 0.20),
  ('CCCCCC(C)NCc1coc(-c2ccc(C)cc2)n1 (configuration not stated)', 1.10);
